- Tested on: caspase-3
- run.description: Caspase-3 activity, colorimetric substrate Ac-DEVD-pNA
- Type: cell-based, human
- study.conditions: Hep G2, 48 h, 150 micro molar; control 0.38
readout.type: Caspase-3 (ΔOD 405nm)

Some entries whose results are on file:
molecule	subject.of.test	readout.type	reported.value
COc1cc([C@H]2Oc3cc([C@H]4Oc5cc(O)cc(O)c5C(=O)[C@@H]4OC(=O)c4cc(O)c(O)c(O)c4)ccc3O[C@@H]2CO)ccc1O [SGA, 3-O-galloyl silybin A]	caspase-3	Caspase-3 (ΔOD 405nm)	0.97 ± 0.134 ΔOD 405nm
COc1cc([C@@H]2Oc3cc([C@H]4Oc5cc(O)cc(O)c5C(=O)[C@@H]4OC(=O)c4cc(O)c(O)c(O)c4)ccc3O[C@H]2CO)ccc1O [SGB, 3-O-galloyl silybin B]	caspase-3	Caspase-3 (ΔOD 405nm)	1.21 ± 0.160 ΔOD 405nm
COc1cc([C@H]2Oc3cc([C@H]4Oc5cc(O)cc(O)c5C(=O)[C@@H]4O)ccc3O[C@@H]2CO)ccc1O [SA, silybin A]	caspase-3	Caspase-3 (ΔOD 405nm)	0.98 ± 0.148 ΔOD 405nm

I would be grateful if you could share the reported Caspase-3 (ΔOD 405nm) for COc1cc([C@@H]2Oc3cc([C@H]4Oc5cc(O)cc(O)c5C(=O)[C@@H]4O)ccc3O[C@H]2CO)ccc1O [SB, silybin B] .
0.73 ± 0.105 ΔOD 405nm

----------
- System: Hep G2 cells
- run.description: Cell viability, MTT colorimetric assay
- Format: cell-based
- study.conditions: Hep G2, 48 h, 50 micro molar
Marks after values point to notes of the source that are not given here.
readout.type: Cell viability (% of control)

Some entries whose results are on file:
> print(dat)
                                smiles.text                   readout.type           reported.value
1  COc1cc([C@@H]2Oc3cc([C@H]4Oc5cc(O)cc(O)c5C(=O)[C@@H]4O)ccc3O[C@H]2CO)ccc1O  Cell viability (% of control)   89 + 10.5 % of control
2  COc1cc([C@H]2Oc3cc([C@H]4Oc5cc(O)cc(O)c5C(=O)[C@@H]4O)ccc3O[C@@H]2CO)ccc1O  Cell viability (% of control)   95 + 10.3 % of control
3  COc1cc([C@@H]2Oc3cc([C@H]4Oc5cc(O)cc(O)c5C(=O)[C@@H]4OC(=O)c4cc(O)c(O)c(O)c4)ccc3O[C@H]2CO)ccc1O  Cell viability (% of control)  78 + 9.5^* % of control

Read the next record carefully.
I would be grateful if you could share the reported Cell viability (% of control) for COc1cc([C@H]2Oc3cc([C@H]4Oc5cc(O)cc(O)c5C(=O)[C@@H]4OC(=O)c4cc(O)c(O)c(O)c4)ccc3O[C@@H]2CO)ccc1O .
84 + 9.3^* % of control

----------
- System: Hep G2 cells
- run.description: Cell viability, MTT colorimetric assay
- Type: cell-based
- study.conditions: Hep G2, 48 h, 100 micro molar
Marks after values point to notes of the source that are not given here.
readout.type: Cell viability (% of control)

Some entries whose results are on file:
> print(dat)
                                smiles.text  subject.of.test                   readout.type            reported.value
1  COc1cc([C@@H]2Oc3cc([C@H]4Oc5cc(O)cc(O)c5C(=O)[C@@H]4O)ccc3O[C@H]2CO)ccc1O     Hep G2 cells  Cell viability (% of control)  70 + 10.0^* % of control
2  COc1cc([C@H]2Oc3cc([C@H]4Oc5cc(O)cc(O)c5C(=O)[C@@H]4OC(=O)c4cc(O)c(O)c(O)c4)ccc3O[C@@H]2CO)ccc1O     Hep G2 cells  Cell viability (% of control)   63 + 8.9^* % of control
3  COc1cc([C@@H]2Oc3cc([C@H]4Oc5cc(O)cc(O)c5C(=O)[C@@H]4OC(=O)c4cc(O)c(O)c(O)c4)ccc3O[C@H]2CO)ccc1O     Hep G2 cells  Cell viability (% of control)   56 + 7.7^* % of control

Read the next record carefully.
I would be grateful if you could share the reported Cell viability (% of control) for COc1cc([C@H]2Oc3cc([C@H]4Oc5cc(O)cc(O)c5C(=O)[C@@H]4O)ccc3O[C@@H]2CO)ccc1O .
83 + 9.5 % of control

----------
Caspase-3 (ΔOD 405nm): recorded values
- Tested on: caspase-3
- run.description: Caspase-3 activity, colorimetric substrate Ac-DEVD-pNA
- Assay type: cell-based, human
- study.conditions: Hep G2, 48 h, 50 micro molar; control 0.38

molecule	Caspase-3 (ΔOD 405nm)
COc1cc([C@H]2Oc3cc([C@H]4Oc5cc(O)cc(O)c5C(=O)[C@@H]4OC(=O)c4cc(O)c(O)c(O)c4)ccc3O[C@@H]2CO)ccc1O [SGA, 3-O-galloyl silybin A]	0.46 ± 0.062 ΔOD 405nm
COc1cc([C@@H]2Oc3cc([C@H]4Oc5cc(O)cc(O)c5C(=O)[C@@H]4OC(=O)c4cc(O)c(O)c(O)c4)ccc3O[C@H]2CO)ccc1O [SGB, 3-O-galloyl silybin B]	0.56 ± 0.070 ΔOD 405nm

I would be grateful if you could share the reported Caspase-3 (ΔOD 405nm) for COc1cc([C@@H]2Oc3cc([C@H]4Oc5cc(O)cc(O)c5C(=O)[C@@H]4O)ccc3O[C@H]2CO)ccc1O [SB, silybin B] .
0.45 ± 0.060 ΔOD 405nm

I would be grateful if you could share the reported Caspase-3 (ΔOD 405nm) for COc1cc([C@H]2Oc3cc([C@H]4Oc5cc(O)cc(O)c5C(=O)[C@@H]4O)ccc3O[C@@H]2CO)ccc1O [SA, silybin A] .
0.58 ± 0.080 ΔOD 405nm

----------
Caspase-3 (ΔOD 405nm): recorded values
- Test system: caspase-3
- run.description: Caspase-3 activity, colorimetric substrate Ac-DEVD-pNA
- Format: cell-based, human
- study.conditions: Hep G2, 48 h, 25 micro molar; control 0.38

Form: Entry = COc1cc([C@H]2Oc3cc([C@H]4Oc5cc(O)cc(O)c5C(=O)[C@@H]4OC(=O)c4cc(O)c(O)c(O)c4)ccc3O[C@@H]2CO)ccc1O | System = caspase-3 | Caspase-3 (ΔOD 405nm) = ____
0.35 ± 0.038 ΔOD 405nm

Form: Entry = COc1cc([C@@H]2Oc3cc([C@H]4Oc5cc(O)cc(O)c5C(=O)[C@@H]4OC(=O)c4cc(O)c(O)c(O)c4)ccc3O[C@H]2CO)ccc1O | System = caspase-3 | Caspase-3 (ΔOD 405nm) = ____
0.45 ± 0.065 ΔOD 405nm

Form: Entry = COc1cc([C@H]2Oc3cc([C@H]4Oc5cc(O)cc(O)c5C(=O)[C@@H]4O)ccc3O[C@@H]2CO)ccc1O | System = caspase-3 | Caspase-3 (ΔOD 405nm) = ____
0.45 ± 0.055 ΔOD 405nm

Form: Entry = COc1cc([C@@H]2Oc3cc([C@H]4Oc5cc(O)cc(O)c5C(=O)[C@@H]4O)ccc3O[C@H]2CO)ccc1O | System = caspase-3 | Caspase-3 (ΔOD 405nm) = ____
0.34 ± 0.050 ΔOD 405nm

----------
- System: Hep G2 cells
- run.description: Cell viability, MTT colorimetric assay
- Type: cell-based
- study.conditions: Hep G2, 48 h, 25 micro molar
readout.type: Cell viability (% of control)

Some entries whose results are on file:
compound	Cell viability (% of control)
COc1cc([C@H]2Oc3cc([C@H]4Oc5cc(O)cc(O)c5C(=O)[C@@H]4OC(=O)c4cc(O)c(O)c(O)c4)ccc3O[C@@H]2CO)ccc1O [SGA, 3-O-galloyl silybin A]	96 + 10.5 % of control
COc1cc([C@@H]2Oc3cc([C@H]4Oc5cc(O)cc(O)c5C(=O)[C@@H]4O)ccc3O[C@H]2CO)ccc1O [SB, silybin B]	94 + 10.3 % of control
COc1cc([C@@H]2Oc3cc([C@H]4Oc5cc(O)cc(O)c5C(=O)[C@@H]4OC(=O)c4cc(O)c(O)c(O)c4)ccc3O[C@H]2CO)ccc1O [SGB, 3-O-galloyl silybin B]	91 + 10.0 % of control

I would be grateful if you could share the reported Cell viability (% of control) for COc1cc([C@H]2Oc3cc([C@H]4Oc5cc(O)cc(O)c5C(=O)[C@@H]4O)ccc3O[C@@H]2CO)ccc1O [SA, silybin A] .
97 + 10.0 % of control

----------
- Tested on: Hep G2 cells
- run.description: Cell viability, MTT colorimetric assay
- Assay type: cell-based
- study.conditions: Hep G2, 48 h, 150 micro molar
Marks after values point to notes of the source that are not given here.
readout.type: Cell viability (% of control)

Some entries whose results are on file:
> print(dat)
                                smiles.text           reported.value
1  COc1cc([C@H]2Oc3cc([C@H]4Oc5cc(O)cc(O)c5C(=O)[C@@H]4O)ccc3O[C@@H]2CO)ccc1O  63 + 7.4^* % of control
2  COc1cc([C@@H]2Oc3cc([C@H]4Oc5cc(O)cc(O)c5C(=O)[C@@H]4O)ccc3O[C@H]2CO)ccc1O  51 + 7.6^* % of control
3  COc1cc([C@@H]2Oc3cc([C@H]4Oc5cc(O)cc(O)c5C(=O)[C@@H]4OC(=O)c4cc(O)c(O)c(O)c4)ccc3O[C@H]2CO)ccc1O  35 + 5.1^* % of control

I would be grateful if you could share the reported Cell viability (% of control) for COc1cc([C@H]2Oc3cc([C@H]4Oc5cc(O)cc(O)c5C(=O)[C@@H]4OC(=O)c4cc(O)c(O)c(O)c4)ccc3O[C@@H]2CO)ccc1O .
44 + 6.0^* % of control
